Data provenance is ChEMBL document CHEMBL3593229.

# TARGET ENTITY: Receptor-type tyrosine-protein kinase FLT3 (Homo sapiens, UniProt P36888, D835Y)
# PROTOCOL DESCRIPTION: Inhibition of FLT3 ITD D835Y mutant (unknown origin) phosphorylation expressed in HEK293T cells preincubated for 1 hr followed by FLT3 ligand addition for 5 mins by Western blot analysis
READOUT LABEL: pIC50
The read-out pIC50 is expressed as -log10 of concentration in moles per litre.

Ask: Given CCc1cc(NC(=O)Nc2ccc(-c3cnc(Nc4cc(N5CCN(CC)CC5)nc(C)n4)s3)cc2)no1 , state its recorded pIC50.
Reply: 8.00

---

# PROTOCOL DESCRIPTION: Cmax in Sprague-Dawley rat at 10 mg/kg, po
# Format: ADME, organism-based
# Design: dose 10 mg/kg, route oral
# DETAILS: in vivo
READOUT LABEL: Cmax (ng/mL)
Unit ng/mL implied. Number only.

Ask: Given CCc1cc(NC(=O)Nc2ccc(-c3cnc(Nc4cc(N5CCN(CC)CC5)nc(C)n4)s3)cc2)no1 , state its recorded Cmax.
Reply: 122
